- MEASUREMENT_NOTES: Volume of distribution at steady state in mouse at 1 mg/kg, iv
- Type: ADME, organism-based
- APPLIED_CONDITIONS: in vivo, read-out: Vdss
METRIC_NAME: Vd (L/kg)
Give just the number in L/kg; leave the unit off.

Tell me the measured Vd of CC/C(=C\c1ccccc1)[C@@H]1C[C@H]1NC1CC2(C1)CN(CCO)C2 , please. 118

----------
pIC50: −log10 of the molar value.
Consider compounds characterized by their pIC50 with Lysine-specific histone demethylase 1A (Homo sapiens).

Request body: readout pIC50, system Lysine-specific histone demethylase 1A (Homo sapiens), query CC/C(=C\c1ccccc1)[C@@H]1C[C@H]1NC1CCN(CCO)CC1 . Return the value. > 8.59

----------
- MEASUREMENT_NOTES: Oral bioavailability in mouse at 5 mg/kg
- Format: ADME, organism-based
- APPLIED_CONDITIONS: in vivo
METRIC_NAME: bioavailability (%)
Record the value in %, omitting the unit from your answer.

Would you mind telling me what bioavailability value was observed for CC/C(=C\c1ccccc1)[C@@H]1C[C@H]1NC1CC2(C1)CN(CCO)C2 ? 59

----------
- MEASUREMENT_NOTES: Half life in mouse at 1 mg/kg, iv
- Type: ADME, organism-based
- APPLIED_CONDITIONS: in vivo
METRIC_NAME: half-life (h)
Report only the number, with the unit h understood.

half-life lookup needed for CC/C(=C\c1ccccc1)[C@@H]1C[C@H]1NC1CC2(C1)CN(CCO)C2 , thanks. 25.3

----------
Recorded microsomal CLint, one value per entry.
- MEASUREMENT_NOTES: Metabolic stability in mouse liver microsomes assessed as intrinsic clearance
- Format: ADME, Microsome
- APPLIED_CONDITIONS: read-out: CLH
Just the number please, in µL/min/mg, no unit attached.

COMPOUND_STRING: CC/C(=C\c1ccccc1)[C@@H]1C[C@H]1NC1CC2(C1)CN(C(C)=O)C2
microsomal CLint (µL/min/mg): 76
//
COMPOUND_STRING: CC/C(=C\c1ccccc1)[C@@H]1C[C@H]1NC1CCN(CCO)CC1
microsomal CLint (µL/min/mg): 46

Record request: microsomal CLint value, item CC/C(=C\c1ccccc1)[C@@H]1C[C@H]1NC1CC2(CNC2)C1 17

Value lookup for microsomal CLint; key = CC/C(=C\c1ccccc1)[C@@H]1C[C@H]1NC1CC2(CCN(CCO)CC2)C1 28

Entry CC/C(=C\c1ccccc1)[C@@H]1C[C@H]1NC1CC2(C1)CN(CCO)C2 has what microsomal CLint? 25

----------
- MEASUREMENT_NOTES: Metabolic stability in rat liver microsomes assessed as intrinsic clearance
- Format: ADME, Microsome
- APPLIED_CONDITIONS: read-out: CLH
METRIC_NAME: microsomal CLint (µL/min/mg)
Entry rule: numbers only, all in µL/min/mg.

COMPOUND_STRING: CC/C(=C\c1ccccc1)[C@@H]1C[C@H]1NC1CC2(C1)CN(C1COC1)C2
METRIC_NAME: microsomal CLint
UNIT_OF_MEASURE: µL/min/mg
NUMBER: 43

COMPOUND_STRING: CC/C(=C\c1ccccc1)[C@@H]1C[C@H]1NC1CC2(C1)CN(CCO)C2
METRIC_NAME: microsomal CLint
UNIT_OF_MEASURE: µL/min/mg
NUMBER: 15

COMPOUND_STRING: CC/C(=C\c1ccccc1)[C@@H]1C[C@H]1NC1CC2(C1)CN(C(C)=O)C2
METRIC_NAME: microsomal CLint
UNIT_OF_MEASURE: µL/min/mg
NUMBER: 48

COMPOUND_STRING: CC/C(=C\c1ccccc1)[C@@H]1C[C@H]1NC1CC2(CCN(CCO)CC2)C1
METRIC_NAME: microsomal CLint
UNIT_OF_MEASURE: µL/min/mg
NUMBER: 19

COMPOUND_STRING: CC/C(=C\c1ccccc1)[C@@H]1C[C@H]1NC1CC2(C1)CN(CC(F)F)C2
METRIC_NAME: microsomal CLint
UNIT_OF_MEASURE: µL/min/mg
NUMBER: 175

Which microsomal CLint value belongs to CC/C(=C\c1ccccc1)[C@@H]1C[C@H]1NC1CC2(CNC2)C1 ? 19

GET /values?readout=microsomal CLint&item= CC/C(=C\c1ccccc1)[C@@H]1C[C@H]1NC1CCN(CCO)CC1 27

Please give the measured microsomal CLint for this compound: CC/C(=C\c1ccccc1)[C@@H]1C[C@H]1NC1CC2(C1)CN(S(C)(=O)=O)C2 80
